tgt: human C5 protein (human, UniProt P01031 19-673; P01031 678-1676)
protocol: cell-based or functional assay
Positions of bridges follow the written chain, without caps; N, C: chain ends. Non-standard residues stand in square brackets, D forms with d. Primed or numbered codes have the meaning given here. mXylyl(3) = bridging moiety between the two residues given in brackets; Ala(1H-tetrazol-5-yl) = N[C@@H](Cc1nnn[nH]1)C(=O)O; Trp(7-aza) = N[C@@H](Cc1c[nH]c2ncccc12)C(=O)O; Phg = N[C@H](C(=O)O)c1ccccc1; Tle = CC(C)(C)[C@H](N)C(=O)O; NMeS = CN[C@@H](CO)C(=O)O; Nva = CCC[C@H](N)C(=O)O
resultType: Avg. IC50, human hemolysis assay

Worked examples, 3 binders total:
>  <binder>
Ac-[Nva]CYKNYH[Trp(7-aza)]EYP[Tle]Y-NH2 (SMILES CCC[C@H](NC(C)=O)C(=O)N[C@@H](CS)C(=O)N[C@@H](Cc1ccc(O)cc1)C(=O)N[C@@H](CCCCN)C(=O)N[C@@H](CC(N)=O)C(=O)N[C@@H](Cc1ccc(O)cc1)C(=O)N[C@@H](Cc1c[nH]cn1)C(=O)N[C@@H](Cc1c[nH]c2ncccc12)C(=O)N[C@@H](CCC(=O)O)C(=O)N[C@@H](Cc1ccc(O)cc1)C(=O)N1CCC[C@H]1C(=O)N[C@H](C(=O)N[C@@H](Cc1ccc(O)cc1)C(N)=O)C(C)(C)C) [R3000]

>  <valueReported>
> 10 µM

$$$$
>  <binder>
Ac-VC[Phg]T[Trp(7-aza)]EY[NMeS]AC[Nva]-NH2 (linker 2-10 via mXylyl(3)) [R3083]

>  <valueReported>
> 25 µM

$$$$
>  <binder>
Ac-[Nva]C[Phg]T[Trp(7-aza)]EY[NMeS]HC[Nva]P[Nva]-NH2 (cysteine pairing not given here) [R3022]

>  <valueReported>
> 10.2 µM

$$$$

Let's switch to this binder now.
Prompt line: Quick check: Avg. IC50, human hemolysis assay of Ac-[Nva]C[Phg]TW[Ala(1H-tetrazol-5-yl)]Y[NMeS]HC[Nva]-NH2 (linker 2-10 via mXylyl(3)) [R3131] ?
Response line: > 100 µM

Attribution: patent US20210283212A1
